The reported measurements were obtained from ChEMBL document CHEMBL1944613.

- target: Astrosclerin-3 (Astrosclera willeyana, UniProt A6YCJ1)
- Sequence (A6YCJ1 whole entry): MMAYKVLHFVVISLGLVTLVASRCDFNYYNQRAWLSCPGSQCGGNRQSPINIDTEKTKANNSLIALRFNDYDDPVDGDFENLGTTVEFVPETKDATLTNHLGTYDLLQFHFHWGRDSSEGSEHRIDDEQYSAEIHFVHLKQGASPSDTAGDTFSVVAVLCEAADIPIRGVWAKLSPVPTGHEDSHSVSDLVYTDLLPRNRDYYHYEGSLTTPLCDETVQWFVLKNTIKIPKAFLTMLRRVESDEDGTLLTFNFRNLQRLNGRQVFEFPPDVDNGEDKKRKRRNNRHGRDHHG
Give pKi for every item shown.
Schema: pKi number; meaning minus log10 of the concentration expressed in molar units.

Req: State its pKi for this molecule: "Nc1c(F)cc(S(=O)(=O)Nc2nnc(S(N)(=O)=O)s2)cc1Cl"
Resp: 8.55

Req: State its pKi for this molecule: CC1(C)O[C@@H]2[C@@H](CO[C@@]3(COS(N)(=O)=O)OC(C)(C)O[C@@H]23)O1 [TOPIRAMATE]
Resp: 7.42

Req: State its pKi for this molecule: "NCCc1ccc(S(N)(=O)=O)cc1"
Resp: 6.15

Req: State its pKi for this molecule: "NS(=O)(=O)c1ccc(S(=O)(=O)Nc2cccc3c(Cl)c[nH]c23)cc1"
Resp: 6.37

Req: State its pKi for this molecule: NS(=O)(=O)c1ccc(C(=O)O)cc1 [CARZENIDE]
Resp: 5.92

Req: State its pKi for this molecule: "Nc1c(I)cc(S(N)(=O)=O)cc1I"
Resp: 6.06

Req: State its pKi for this molecule: "Nc1ccc(S(N)(=O)=O)cc1Cl"
Resp: 6.05

Req: State its pKi for this molecule: Nc1ccc(S(N)(=O)=O)cc1 [SULFANILAMIDE]
Resp: 5.11

Req: State its pKi for this molecule: "Nc1c(Br)cc(S(N)(=O)=O)cc1Br"
Resp: 6.02
